The measured values listed here are drawn from patent US20230049952A1.

Method notes: Compound 2 and metabolites in rat plasma, 50 mg/kg PO QD×10
Type: in vivo
Setup conditions: rat plasma; Compound 2 50 mg/kg PO QD×10; 72 h post tenth dose

{"Line notation": "CCn1c(C#CCNc2ccc(C)nc2)cc2cc(CNC3CCOCC3)ccc21", "Average Concentration": "BLQ"}
{"Line notation": "CCn1c(C#CCNc2ccccc2)cc2cc(CNCc3ccccc3)ccc21", "Average Concentration": "BLQ"}
{"Line notation": "CCn1c(C#CCNc2ccc(F)cc2)cc2cc(CNC)ccc21", "Average Concentration": "7.62 ng/mL"}
{"Line notation": "CCn1c(C#CCNc2ccc(Cl)cc2)cc2cc(CNC3CCN(C)CC3)ccc21", "Average Concentration": "BLQ"}

----------
Target or system: CYP2C9 (Homo sapiens, UniProt P11712)
Sequence (P11712 whole entry): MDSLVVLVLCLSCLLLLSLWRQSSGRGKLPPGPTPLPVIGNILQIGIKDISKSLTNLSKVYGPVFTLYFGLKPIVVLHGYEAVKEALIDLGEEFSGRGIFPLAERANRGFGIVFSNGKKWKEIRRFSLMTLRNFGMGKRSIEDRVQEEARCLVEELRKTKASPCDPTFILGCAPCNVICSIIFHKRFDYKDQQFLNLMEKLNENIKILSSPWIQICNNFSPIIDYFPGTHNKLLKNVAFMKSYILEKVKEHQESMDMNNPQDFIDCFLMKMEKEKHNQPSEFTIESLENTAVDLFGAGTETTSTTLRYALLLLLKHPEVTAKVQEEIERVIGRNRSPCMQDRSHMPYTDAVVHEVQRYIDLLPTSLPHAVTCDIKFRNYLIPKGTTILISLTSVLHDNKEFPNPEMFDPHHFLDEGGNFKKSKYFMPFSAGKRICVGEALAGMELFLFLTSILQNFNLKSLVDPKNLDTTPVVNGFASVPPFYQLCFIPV
Method notes: in vitro
Setup conditions: both, microsomes, pH 7.4, % of Control Enzyme Activity
Readout type: activity at 20 min, 0.123 µM
In your response, the unit should come after the numeric value.

Let me check: O=C(O)COc1ccc(C(=O)c2cccs2)c(Cl)c1Cl [Tienilic acid] , system CYP2C9 (Homo sapiens, UniProt P11712), measured activity at 20 min, 0.123 µM is 96.5%

----------
Method notes: metabolic stability in cryopreserved hepatocytes
Format: in vitro ADME, cynomolgus monkey
Setup conditions: male, pH 7.4; Monkey cryopreserved hepatocytes; positive control 1 μM
Readout type: hepatocyte CLint (µL/min/1e6 cells)
Numbers only, in µL/min/1e6 cells.

For this compound ( C[C@]12CC[C@H]3[C@@H](CCC4=CC(=O)CC[C@@]43C)[C@@H]1CC[C@@H]2O [testosterone] ), measured hepatocyte CLint is 150

----------
Method notes: Compound 2 and metabolites in rat plasma, 50 mg/kg PO QD×10
Assay type: in vivo
Setup conditions: rat plasma; Compound 2 50 mg/kg PO QD×10; 48 h post tenth dose

{"Line notation": "CCn1c(C#CCNc2ccc(F)cc2)cc2cc(CNC)ccc21", "Average Concentration": "26.01 ng/mL"}
{"Line notation": "CCn1c(C#CCNc2ccccc2)cc2cc(CNCc3ccccc3)ccc21", "Average Concentration": "2.58 ng/mL"}
{"Line notation": "CCn1c(C#CCNc2ccc(Cl)cc2)cc2cc(CNC3CCN(C)CC3)ccc21", "Average Concentration": "BLQ"}
{"Line notation": "CCn1c(C#CCNc2ccc(C)nc2)cc2cc(CNC3CCOCC3)ccc21", "Average Concentration": "1.11 ng/mL"}

----------
Target or system: BCRP (Homo sapiens, UniProt Q9UNQ0)
Sequence (Q9UNQ0 whole entry): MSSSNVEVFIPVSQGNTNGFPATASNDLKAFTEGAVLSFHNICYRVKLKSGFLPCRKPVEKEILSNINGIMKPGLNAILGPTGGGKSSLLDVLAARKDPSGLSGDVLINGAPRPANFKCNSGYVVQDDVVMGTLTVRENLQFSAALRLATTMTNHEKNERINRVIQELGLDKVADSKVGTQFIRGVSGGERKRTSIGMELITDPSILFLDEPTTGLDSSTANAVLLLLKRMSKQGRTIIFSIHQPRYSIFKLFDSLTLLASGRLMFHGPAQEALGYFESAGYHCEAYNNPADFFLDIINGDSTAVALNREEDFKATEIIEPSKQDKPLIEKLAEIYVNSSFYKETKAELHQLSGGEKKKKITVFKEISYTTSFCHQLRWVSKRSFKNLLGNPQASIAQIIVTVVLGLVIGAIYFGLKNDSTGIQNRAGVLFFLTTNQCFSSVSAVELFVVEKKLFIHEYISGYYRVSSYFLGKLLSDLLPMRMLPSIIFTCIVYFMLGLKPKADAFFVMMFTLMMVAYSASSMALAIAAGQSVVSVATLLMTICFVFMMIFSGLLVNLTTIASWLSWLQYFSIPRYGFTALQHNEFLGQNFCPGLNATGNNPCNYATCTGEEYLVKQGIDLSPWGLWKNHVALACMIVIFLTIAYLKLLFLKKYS
Method notes: in vitro
Setup conditions: Caco-2, pH 7.4, Recovery (%), Caco-2, Cladribine alone, B-to-A
Readout type: recovery (%)
Answers are plain numbers, in %.

Record Nc1nc(Cl)nc2c1ncn2[C@H]1C[C@H](O)[C@@H](CO)O1 , field recovery: 85.6

----------
Method notes: metabolic stability in cryopreserved hepatocytes
Assay type: in vitro ADME, mouse
Setup conditions: male, CD-1, pH 7.4; Mouse cryopreserved hepatocytes; positive control 1 μM
Readout type: hepatocyte CLint (µL/min/1e6 cells)
Answers are plain numbers, in µL/min/1e6 cells.

Sure, the documented hepatocyte CLint for C[C@]12CC[C@H]3[C@@H](CCC4=CC(=O)CC[C@@]43C)[C@@H]1CC[C@@H]2O is 181

----------
Method notes: Compound 2 and metabolites in rat plasma, 50 mg/kg PO QD×10
Assay type: in vivo
Setup conditions: rat plasma; Compound 2 50 mg/kg PO QD×1; 1 h
Kindly state Average Concentration for each of the entries shown.
One number for each entry, in ng/mL.

List reported Average Concentration for each of these compounds:
1. CCn1c(C#CCNc2ccc(F)cc2)cc2cc(CNC)ccc21
2. CCn1c(C#CCNc2ccccc2)cc2cc(CNCc3ccccc3)ccc21
3. CCn1c(C#CCNc2ccc(Cl)cc2)cc2cc(CNC3CCN(C)CC3)ccc21
4. CCn1c(C#CCNc2ccc(C)nc2)cc2cc(CNC3CCOCC3)ccc21

1. 461.83
2. 41.55
3. 1.37
4. 18.64
